- system: fusion protein PRL
- Sequence (chain, as listed by the source): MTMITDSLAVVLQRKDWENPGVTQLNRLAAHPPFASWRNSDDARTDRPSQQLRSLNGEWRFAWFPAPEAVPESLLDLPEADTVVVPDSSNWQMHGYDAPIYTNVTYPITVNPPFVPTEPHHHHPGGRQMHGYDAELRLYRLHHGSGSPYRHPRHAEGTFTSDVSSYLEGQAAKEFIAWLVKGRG
measure.name: relative cleavage efficiency

Example entries begin here.
| protein | relative cleavage efficiency |
| --- | --- |
| OmpT protease variant OmpT D97I (protein) STETLSFTPDNINADISLGTLSGKTKERVYLAEEGGRKVSQLDWKFNNAAIIKGAINWDLMPQISIGAAGWTTLGSRGGNMVDQDWMDSSNPGTWTIESRHPDTQLNYANEFDLNIKGWLLNEPNYRLGLMAGYQESRYSFTARGGSYIYSSEEGFRDDIGSFPNGERAIGYKQRFKMPYIGLTGSYRYEDFELGGTFKYSGWVESSDNDEHYDPGKRITYRSKVKDQNYYSVAVNAGYYVTPNAKVYVEGAWNRVTNKKGNTSLYDHNNNTSDYSKNGAGIENYNFITTAGLKYTF | less than 3.0% |
| OmpT protease variant OmpT D97L (protein) STETLSFTPDNINADISLGTLSGKTKERVYLAEEGGRKVSQLDWKFNNAAIIKGAINWDLMPQISIGAAGWTTLGSRGGNMVDQDWMDSSNPGTWTLESRHPDTQLNYANEFDLNIKGWLLNEPNYRLGLMAGYQESRYSFTARGGSYIYSSEEGFRDDIGSFPNGERAIGYKQRFKMPYIGLTGSYRYEDFELGGTFKYSGWVESSDNDEHYDPGKRITYRSKVKDQNYYSVAVNAGYYVTPNAKVYVEGAWNRVTNKKGNTSLYDHNNNTSDYSKNGAGIENYNFITTAGLKYTF | less than 3% |
| OmpT protease variant OmpT D97Y (protein) STETLSFTPDNINADISLGTLSGKTKERVYLAEEGGRKVSQLDWKFNNAAIIKGAINWDLMPQISIGAAGWTTLGSRGGNMVDQDWMDSSNPGTWTYESRHPDTQLNYANEFDLNIKGWLLNEPNYRLGLMAGYQESRYSFTARGGSYIYSSEEGFRDDIGSFPNGERAIGYKQRFKMPYIGLTGSYRYEDFELGGTFKYSGWVESSDNDEHYDPGKRITYRSKVKDQNYYSVAVNAGYYVTPNAKVYVEGAWNRVTNKKGNTSLYDHNNNTSDYSKNGAGIENYNFITTAGLKYTF | less than 3.0% |
| OmpT protease (wild-type, E. coli mature OmpT protease) (protein) STETLSFTPDNINADISLGTLSGKTKERVYLAEEGGRKVSQLDWKFNNAAIIKGAINWDLMPQISIGAAGWTTLGSRGGNMVDQDWMDSSNPGTWTDESRHPDTQLNYANEFDLNIKGWLLNEPNYRLGLMAGYQESRYSFTARGGSYIYSSEEGFRDDIGSFPNGERAIGYKQRFKMPYIGLTGSYRYEDFELGGTFKYSGWVESSDNDEHYDPGKRITYRSKVKDQNYYSVAVNAGYYVTPNAKVYVEGAWNRVTNKKGNTSLYDHNNNTSDYSKNGAGIENYNFITTAGLKYTF | less than 3% |
| OmpT protease variant OmpT D97K (protein) STETLSFTPDNINADISLGTLSGKTKERVYLAEEGGRKVSQLDWKFNNAAIIKGAINWDLMPQISIGAAGWTTLGSRGGNMVDQDWMDSSNPGTWTKESRHPDTQLNYANEFDLNIKGWLLNEPNYRLGLMAGYQESRYSFTARGGSYIYSSEEGFRDDIGSFPNGERAIGYKQRFKMPYIGLTGSYRYEDFELGGTFKYSGWVESSDNDEHYDPGKRITYRSKVKDQNYYSVAVNAGYYVTPNAKVYVEGAWNRVTNKKGNTSLYDHNNNTSDYSKNGAGIENYNFITTAGLKYTF | less than 3.0% |
| OmpT protease variant OmpT D97G (protein) STETLSFTPDNINADISLGTLSGKTKERVYLAEEGGRKVSQLDWKFNNAAIIKGAINWDLMPQISIGAAGWTTLGSRGGNMVDQDWMDSSNPGTWTGESRHPDTQLNYANEFDLNIKGWLLNEPNYRLGLMAGYQESRYSFTARGGSYIYSSEEGFRDDIGSFPNGERAIGYKQRFKMPYIGLTGSYRYEDFELGGTFKYSGWVESSDNDEHYDPGKRITYRSKVKDQNYYSVAVNAGYYVTPNAKVYVEGAWNRVTNKKGNTSLYDHNNNTSDYSKNGAGIENYNFITTAGLKYTF | less than 3.0% |
| OmpT protease variant OmpT D97E (protein) STETLSFTPDNINADISLGTLSGKTKERVYLAEEGGRKVSQLDWKFNNAAIIKGAINWDLMPQISIGAAGWTTLGSRGGNMVDQDWMDSSNPGTWTEESRHPDTQLNYANEFDLNIKGWLLNEPNYRLGLMAGYQESRYSFTARGGSYIYSSEEGFRDDIGSFPNGERAIGYKQRFKMPYIGLTGSYRYEDFELGGTFKYSGWVESSDNDEHYDPGKRITYRSKVKDQNYYSVAVNAGYYVTPNAKVYVEGAWNRVTNKKGNTSLYDHNNNTSDYSKNGAGIENYNFITTAGLKYTF | less than 3% |
| OmpT protease variant OmpT D97N (protein) STETLSFTPDNINADISLGTLSGKTKERVYLAEEGGRKVSQLDWKFNNAAIIKGAINWDLMPQISIGAAGWTTLGSRGGNMVDQDWMDSSNPGTWTNESRHPDTQLNYANEFDLNIKGWLLNEPNYRLGLMAGYQESRYSFTARGGSYIYSSEEGFRDDIGSFPNGERAIGYKQRFKMPYIGLTGSYRYEDFELGGTFKYSGWVESSDNDEHYDPGKRITYRSKVKDQNYYSVAVNAGYYVTPNAKVYVEGAWNRVTNKKGNTSLYDHNNNTSDYSKNGAGIENYNFITTAGLKYTF | less than 3% |

Next protein, please.
Reported relative cleavage efficiency of OmpT protease variant OmpT D97R (protein) STETLSFTPDNINADISLGTLSGKTKERVYLAEEGGRKVSQLDWKFNNAAIIKGAINWDLMPQISIGAAGWTTLGSRGGNMVDQDWMDSSNPGTWTRESRHPDTQLNYANEFDLNIKGWLLNEPNYRLGLMAGYQESRYSFTARGGSYIYSSEEGFRDDIGSFPNGERAIGYKQRFKMPYIGLTGSYRYEDFELGGTFKYSGWVESSDNDEHYDPGKRITYRSKVKDQNYYSVAVNAGYYVTPNAKVYVEGAWNRVTNKKGNTSLYDHNNNTSDYSKNGAGIENYNFITTAGLKYTF : less than 3.0%
